# Test system: SK-OV-3 multi-cell spheroids, viability
# testMethodNotes: Anticancer human tumor SK-OV-3 cell line growth inhibition [IpAb];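 on viability, T/C: viability read after seven days of drug exposure; percent of DMSO vehicle control luminescence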
# experimentalContext: second compound 0.316 µM; first compound 0.00316 µM; stronger effect = lower value
property: viability, T/C (%)
Give bare numbers, in %.

The cases that follow already have their viability, T/C on record.
compound: COc1c(OCCCN2CCOCC2)ccc2c3n(c(=NC(=O)c4cnc(N)nc4)nc12)CCN3 + CC(C)NCC(C(=O)N1CCN(c2ncnc3c2C(C)CC3O)CC1)c1ccc(Cl)cc1
property: viability, T/C
obsValue: 29.5
//
compound: CC(C)n1nc(-c2ccc3oc(N)nc3c2)c2c(N)ncnc21 + CCN1CCN(Cc2ccc(Nc3ncc(F)c(-c4cc(F)c5nc(C)n(C(C)C)c5c4)n3)nc2)CC1
property: viability, T/C
obsValue: 26.2
//
compound: COc1c(OCCCN2CCOCC2)ccc2c3n(c(=NC(=O)c4cnc(N)nc4)nc12)CCN3 + CCN1CCN(Cc2ccc(Nc3ncc(F)c(-c4cc(F)c5nc(C)n(C(C)C)c5c4)n3)nc2)CC1
property: viability, T/C
obsValue: 42.1
//
compound: Cn1ncnc1[C@H]1c2n[nH]c(=O)c3cc(F)cc(c23)N[C@@H]1c1ccc(F)cc1 + CCN1CCN(Cc2ccc(Nc3ncc(F)c(-c4cc(F)c5nc(C)n(C(C)C)c5c4)n3)nc2)CC1
property: viability, T/C
obsValue: 52.1
//
compound: CC(C)n1nc(-c2ccc3oc(N)nc3c2)c2c(N)ncnc21 + CC(C)NCC(C(=O)N1CCN(c2ncnc3c2C(C)CC3O)CC1)c1ccc(Cl)cc1
property: viability, T/C
obsValue: 19.7

Proceed to the following item.
Record Cn1ncnc1[C@H]1c2n[nH]c(=O)c3cc(F)cc(c23)N[C@@H]1c1ccc(F)cc1 + CC(C)NCC(C(=O)N1CCN(c2ncnc3c2C(C)CC3O)CC1)c1ccc(Cl)cc1 : what is its viability, T/C with SK-OV-3 multi-cell spheroids, viability?
41.2

###

# Test system: SK-OV-3 multi-cell spheroids, viability
# testMethodNotes: Anticancer human tumor SK-OV-3 cell line growth inhibition [IpAb]
# experimentalContext: curve of first compound; second compound 0.316 µM
pIC50: −log10 of the molar value.
property: pIC50

molecule: CC(C)n1nc(-c2ccc3oc(N)nc3c2)c2c(N)ncnc21 + CC(C)NCC(C(=O)N1CCN(c2ncnc3c2C(C)CC3O)CC1)c1ccc(Cl)cc1
targetEntity: SK-OV-3 multi-cell spheroids, viability
obsValue: > 9.50

molecule: Cn1nccc1Nc1nccc(-c2ccn(C(CO)c3ccc(Cl)c(F)c3)c(=O)c2)n1 (stereo not drawn) + CC(C)NCC(C(=O)N1CCN(c2ncnc3c2C(C)CC3O)CC1)c1ccc(Cl)cc1
targetEntity: SK-OV-3 multi-cell spheroids, viability
obsValue: > 7.50

molecule: Cc1nc(NC(=O)N2CCCC2C(N)=O)sc1-c1ccnc(C(C)(C)C(F)(F)F)c1 (stereo not drawn) + CC(C)NCC(C(=O)N1CCN(c2ncnc3c2C(C)CC3O)CC1)c1ccc(Cl)cc1
targetEntity: SK-OV-3 multi-cell spheroids, viability
obsValue: > 7.50

molecule: CC(C)(C)c1cnc(CSc2cnc(NC(=O)C3CCNCC3)s2)o1 + CC(C)NCC(C(=O)N1CCN(c2ncnc3c2C(C)CC3O)CC1)c1ccc(Cl)cc1
targetEntity: SK-OV-3 multi-cell spheroids, viability
obsValue: 6.93

molecule: COc1c(OCCCN2CCOCC2)ccc2c3n(c(=NC(=O)c4cnc(N)nc4)nc12)CCN3 + CC(C)NCC(C(=O)N1CCN(c2ncnc3c2C(C)CC3O)CC1)c1ccc(Cl)cc1
targetEntity: SK-OV-3 multi-cell spheroids, viability
obsValue: > 8.50

molecule: CC(C)n1nc(-c2ccc3oc(N)nc3c2)c2c(N)ncnc21 + CCN1CCN(Cc2ccc(Nc3ncc(F)c(-c4cc(F)c5nc(C)n(C(C)C)c5c4)n3)nc2)CC1
targetEntity: SK-OV-3 multi-cell spheroids, viability
obsValue: 9.42

molecule: COc1c(OCCCN2CCOCC2)ccc2c3n(c(=NC(=O)c4cnc(N)nc4)nc12)CCN3 + CCN1CCN(Cc2ccc(Nc3ncc(F)c(-c4cc(F)c5nc(C)n(C(C)C)c5c4)n3)nc2)CC1
targetEntity: SK-OV-3 multi-cell spheroids, viability
obsValue: > 8.50

molecule: Cn1cnc2c(F)c(Nc3ccc(Br)cc3Cl)c(C(=O)NOCCO)cc21 + CC(C)NCC(C(=O)N1CCN(c2ncnc3c2C(C)CC3O)CC1)c1ccc(Cl)cc1
targetEntity: SK-OV-3 multi-cell spheroids, viability
obsValue: > 8.02

molecule: Cn1cnc2c(F)c(Nc3ccc(Br)cc3Cl)c(C(=O)NOCCO)cc21 + CCN1CCN(Cc2ccc(Nc3ncc(F)c(-c4cc(F)c5nc(C)n(C(C)C)c5c4)n3)nc2)CC1
targetEntity: SK-OV-3 multi-cell spheroids, viability
obsValue: 6.78

molecule: CCCS(=O)(=O)Nc1ccc(F)c(C(=O)c2c[nH]c3ncc(-c4ccc(Cl)cc4)cc23)c1F + CC(C)NCC(C(=O)N1CCN(c2ncnc3c2C(C)CC3O)CC1)c1ccc(Cl)cc1
targetEntity: SK-OV-3 multi-cell spheroids, viability
obsValue: > 7.50

// each listed molecule needs a value for pIC50
1. CC1(C)CCC(CN2CCN(c3ccc(C(=O)NS(=O)(=O)c4ccc(NCC5CCOCC5)c([N+](=O)[O-])c4)c(Oc4cnc5[nH]ccc5c4)c3)CC2)=C(c2ccc(Cl)cc2)C1 + CC(C)NCC(C(=O)N1CCN(c2ncnc3c2C(C)CC3O)CC1)c1ccc(Cl)cc1
2. C=CC(=O)N1CCN(c2nc(=O)n(-c3c(C)ccnc3C(C)C)c3nc(-c4c(O)cccc4F)c(F)cc23)C(C)C1 (stereo not drawn) + CC(C)NCC(C(=O)N1CCN(c2ncnc3c2C(C)CC3O)CC1)c1ccc(Cl)cc1
3. CCCS(=O)(=O)Nc1ccc(F)c(C(=O)c2c[nH]c3ncc(-c4ccc(Cl)cc4)cc23)c1F + CCN1CCN(Cc2ccc(Nc3ncc(F)c(-c4cc(F)c5nc(C)n(C(C)C)c5c4)n3)nc2)CC1

1. > 7.50
2. > 7.50
3. 6.09

###

# System: SK-OV-3 multi-cell spheroids, viability
# testMethodNotes: Anticancer human tumor SK-OV-3 cell line growth inhibition [IpAb];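 on viability, T/C: viability read after seven days of drug exposure; percent of DMSO vehicle control luminescence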
# experimentalContext: second compound 0.1 µM; first compound 0.316 µM; stronger effect = lower value
property: viability, T/C (%)
Give bare numbers, in %.

The cases that follow already have their viability, T/C on record.
compound: CCCS(=O)(=O)Nc1ccc(F)c(C(=O)c2c[nH]c3ncc(-c4ccc(Cl)cc4)cc23)c1F + CCN1CCN(Cc2ccc(Nc3ncc(F)c(-c4cc(F)c5nc(C)n(C(C)C)c5c4)n3)nc2)CC1
viability, T/C, %: 57.4

compound: C=CC(=O)N1CCN(c2nc(=O)n(-c3c(C)ccnc3C(C)C)c3nc(-c4c(O)cccc4F)c(F)cc23)C(C)C1 (stereo not given) + CC(C)NCC(C(=O)N1CCN(c2ncnc3c2C(C)CC3O)CC1)c1ccc(Cl)cc1
viability, T/C, %: 77.7

compound: CCCS(=O)(=O)Nc1ccc(F)c(C(=O)c2c[nH]c3ncc(-c4ccc(Cl)cc4)cc23)c1F + CC(C)NCC(C(=O)N1CCN(c2ncnc3c2C(C)CC3O)CC1)c1ccc(Cl)cc1
viability, T/C, %: 67.5

compound: COc1c(OCCCN2CCOCC2)ccc2c3n(c(=NC(=O)c4cnc(N)nc4)nc12)CCN3 + CCN1CCN(Cc2ccc(Nc3ncc(F)c(-c4cc(F)c5nc(C)n(C(C)C)c5c4)n3)nc2)CC1
viability, T/C, %: 5.13

compound: C=CC(=O)N1CCN(c2nc(=O)n(-c3c(C)ccnc3C(C)C)c3nc(-c4c(O)cccc4F)c(F)cc23)C(C)C1 (stereo not given) + CCN1CCN(Cc2ccc(Nc3ncc(F)c(-c4cc(F)c5nc(C)n(C(C)C)c5c4)n3)nc2)CC1
viability, T/C, %: 65.5

compound: Cn1ncc(Cl)c1-c1cc(C(=O)NC(CN)Cc2cccc(F)c2)sc1Cl (stereo not given) + CCN1CCN(Cc2ccc(Nc3ncc(F)c(-c4cc(F)c5nc(C)n(C(C)C)c5c4)n3)nc2)CC1
viability, T/C, %: 18.1

// each listed compound needs a value for viability, T/C
1. C=CCn1c(=O)c2cnc(Nc3ccc(N4CCN(C)CC4)cc3)nc2n1-c1cccc(C(C)(C)O)n1 + CC(C)NCC(C(=O)N1CCN(c2ncnc3c2C(C)CC3O)CC1)c1ccc(Cl)cc1
2. CC1(C)CCC(CN2CCN(c3ccc(C(=O)NS(=O)(=O)c4ccc(NCC5CCOCC5)c([N+](=O)[O-])c4)c(Oc4cnc5[nH]ccc5c4)c3)CC2)=C(c2ccc(Cl)cc2)C1 + CC(C)NCC(C(=O)N1CCN(c2ncnc3c2C(C)CC3O)CC1)c1ccc(Cl)cc1
3. C=CCn1c(=O)c2cnc(Nc3ccc(N4CCN(C)CC4)cc3)nc2n1-c1cccc(C(C)(C)O)n1 + CCN1CCN(Cc2ccc(Nc3ncc(F)c(-c4cc(F)c5nc(C)n(C(C)C)c5c4)n3)nc2)CC1
4. Cc1nc(NC(=O)N2CCCC2C(N)=O)sc1-c1ccnc(C(C)(C)C(F)(F)F)c1 (stereo not given) + CCN1CCN(Cc2ccc(Nc3ncc(F)c(-c4cc(F)c5nc(C)n(C(C)C)c5c4)n3)nc2)CC1

10
68
14.4
23.9
